Tested on: UACC-257 melanoma
Assay Name: NCI-60 one-dose screen, 48 h
Condition Details: 10 µM unless noted
This is part of a sample that, as a whole, favours compounds with a hit. Of some 83,000 tested, about 20% had one in any assay. Activity calls are given as the source filed them. Rule for the calls: active = growth percent below 10; inactive = the rest.
Your response should consist of one outcome taken from y (active), n (inactive)

Examples from the recorded data:
CCOC(=O)C(=Cc1ccc(-c2ccccc2)cc1)C(=O)OCC	n
CNC1=CC(=O)c2c(C(=O)OC)c(C)[n+]([O-])c(C)c2C1=O	n
COc1ccc(/C=C2\COc3ccc(O)cc3C2=O)cc1	n
O=C1Nc2c(C(=O)O)cccc2/C1=N/c1n[nH]c(=S)s1	n
Cc1ccc(S(=O)(=O)Oc2ccc3sc4cccc(NCCN(C)C)c4c(=O)c3c2)cc1	y
C=C(C)[C@@H]1CC[C@]2(C)[C@H](CC=C3[C@@H]4CC(C)(C)CC[C@]4(CO)CC[C@]32C)[C@@]1(C)CCCN	y

Prompt: # fetch the recorded call for O=C(O)c1ccc(-c2ccc(/C=N/Nc3nc(Nc4ccccc4)nc(N4CCCCC4)n3)o2)cc1 here
Completion: n

Prompt: Please state the recorded outcome for this compound: O=C(N=Nc1c(O)[nH]c2ccccc12)Nc1ccc(F)cc1
Completion: n

Prompt: Write down the call the test reported for this compound. Item: CN1C(=O)/C(=C/c2ccc(C(=O)Nc3ncc(Cc4cccc(Cl)c4)s3)cc2)SC1=S
Completion: n

Prompt: Please indicate how the test categorized CCN1CCN(c2cc(C)nc(N(CCNc3ccnc4cc(Cl)ccc34)Cc3ccc4c(c3)OCO4)n2)CC1 .
Completion: y

Prompt: What call does the record list for CCOC(=O)C(Cc1ccc(OC)cc1)C(=O)OCC ?
Completion: n

Prompt: Assay result, entry CC1=C(C(=O)Nc2nc(-c3ccc(Cl)cc3)cs2)[C@H](c2ccc(O)cc2)NC(=O)N1 — outcome?
Completion: n

----------
Tested on: NCI-H460 lung
Assay Name: NCI-60 one-dose screen, 48 h
Condition Details: 10 µM unless noted
About 83,000 compounds went through this panel and 20% of them were active in at least one assay; those are over-represented in the sample as a whole. Calls of active or inactive are those of the source. Rule for the calls: active = growth percent below 10; inactive = the rest.
Response enum: active, inactive

Prompt: What call does the record list for Cc1nc2c(=O)nc3s/c(=C\c4ccco4)c(=O)n3c2nc1C ?
Completion: inactive

Prompt: Per the records of this test, what outcome belongs to CCCCCCCC/C=C\CCCCCCCCOc1ccc(CC(=O)NCC[N+]2(C)CCOCC2)cc1 ?
Completion: inactive

Prompt: GET /call?item= N#Cc1cccc(C2C3=C(COC3=O)N(CCO)c3cc4c(cc32)OCO4)c1 (centres undefined) returns the recorded outcome of this test.
Completion: inactive

Prompt: Give the logged outcome of this assay for the following compound: COc1ccc(C(=O)/C=C/c2ccc(Cl)cc2)cc1S(=O)(=O)Nc1c(N)nc(SC)[nH]c1=O
Completion: inactive

Prompt: # fetch the recorded call for CCCCNC(=O)Oc1ccc(/C(=C(/C)Cc2ccc(OC)cc2)c2ccc(OCCN3CCCCCC3)cc2)cc1 here
Completion: inactive

Prompt: Hi, do you know how CN(C)c1ccc(/C=C(\C#N)c2cc3ccccc3[nH]2)cc1 came out in this test?
Completion: inactive

Prompt: Recorded test call requested for O=S(=O)(NCCCNc1nccc(-c2c(-c3cccc(F)c3)nc3occn23)n1)c1ccc(F)cc1
Completion: inactive

Prompt: # fetch the recorded call for CNC(C)[C@H]1CCC2C3CC=C4C(=O)[C@@H](NC(=O)C=C(C)C)CC[C@]4(C)C3CC[C@@]21C (some centres undefined) here
Completion: active

Prompt: Which outcome did this test record for the compound O=C(Cc1ccc(/C=C/C(=O)c2ncc[nH]2)cc1)Nc1cc(C(F)(F)F)cc(C(F)(F)F)c1 ?
Completion: inactive

Prompt: Dear colleague, could you share the recorded outcome for CCOC(=O)c1cc(C(=O)c2cc(OC)c(OC)c(OC)c2)n2ccccc12 when you have a moment?
Completion: inactive

Prompt: Per the records of this test, what outcome belongs to Cc1ccc(-c2nc(-c3cn(C)c4ncccc34)cs2)cc1 ?
Completion: active

Prompt: Which outcome was entered for the compound COC1=C(C)C(=O)N2[C@@H]1[C@H](c1ccccc1)OC21C=CC(=O)C=C1 in this test?
Completion: inactive

Prompt: Any idea what this test logged for O=C(C1CCCCC1)[C@@H]1[C@]2(C(=O)NC3CCCCC32)[C@@H]2CCCN2[C@@]12C(=O)NC1CCC(Cl)CC12 (some centres undefined) ?
Completion: active

Prompt: What did this assay record as the result for CN1CCN(C(=O)C(C)(C)c2ccc(C(=O)Nc3cn4cc(-c5ccncc5)ccc4n3)cc2)CC1 ?
Completion: inactive

Prompt: Per the records of this test, what outcome belongs to CCCC(CC)(C(=O)Nc1ccc2nc(C)cc(N)c2c1)C(=O)Nc1ccc2nc(C)cc(N)c2c1 ?
Completion: inactive

Prompt: Hi, do you know how COc1ccc(C(=O)Cn2c(C(=O)c3ccc(Cl)cc3)nc3ccccc32)cc1 came out in this test?
Completion: inactive

Prompt: Called result for COc1cccc(/C=C/C(=O)c2cccc(Nc3nc(Nc4ccccc4)nc(Nc4ccccc4)n3)c2)c1
Completion: inactive

Prompt: # outcome recorded in this test, key = Cc1cccc(-c2nc(Nc3ccc4ncsc4c3)c3ccccc3n2)n1
Completion: inactive

Prompt: GET /call?item= CCN(CC)Cc1cc(Nc2ccnc3cc(Cl)ccc23)ccc1O returns the recorded outcome of this test.
Completion: inactive

----------
Test system: SNB-19 CNS
Assay Name: NCI-60 one-dose screen, 48 h
Condition Details: 10 µM unless noted
The panel holds about 83,000 compounds, 20% with a hit somewhere; the sample as a whole holds those more often. Active and inactive are the calls of the source. How the source made its calls: active means growth percent below 10; inactive means the rest.
Entry note: the call must match one of y = active, n = inactive

Use the examples below as a reference point.
CCN(CC)CCN1C(=O)c2c(c(C)c3c(oc4ccc(O)cc43)c2C)C1=O	n
O=C(Cc1cccc(OC(F)(F)F)c1)Nc1ccc(CCCCc2nnc(NC(=O)Cc3ccccn3)s2)nn1	n
Cc1ccc(-c2nc(-c3cn(C)c4ncccc34)cs2)cc1	y
CC1(C)[C@@H](O[C@@H]2OC[C@@H](O[C@@H]3O[C@H](CO)[C@@H](O)[C@H](O)[C@H]3O[C@@H]3OC[C@@H](O)[C@H](O)[C@H]3O)[C@H](O)[C@H]2O[C@@H]2O[C@H](CO)[C@@H](O)[C@H](O)[C@H]2O)CC[C@]2(C)[C@H]3CC[C@]45OC[C@@]6(CC[C@](C)(C=O)C[C@H]64)[C@H](O)C[C@@]5(C)[C@]3(C)CC[C@@H]12	y
CNCc1cccc2c1OCCOCCOCCNS(=O)(=O)c1ccc(cc1)-c1cnc(N)c(n1)C(=O)N2	n

Prompt: Which outcome did this test record for the compound C#CC#CC#CC#CC#CC#CC#CC#CC[C@@H]1OC[C@@H](COC(=O)O[C@@H](C(=O)O[C@H]2C[C@@]3(O)[C@@H](OC(=O)c4ccccc4)[C@@H]4[C@]5(OC(C)=O)CO[C@@H]5C[C@H](O)[C@@]4(C)C(=O)[C@H](OC(C)=O)C(=C2C)C3(C)C)[C@@H](NC(=O)c2ccccc2)c2ccccc2)O1 ?
Completion: n

Prompt: Would you mind telling me which call this test gave O=C1/C(=C2\SC(=S)N(C3CC3)C2=O)SC(=S)N1C1CC1 ?
Completion: n

Prompt: Can you look up the reported call for O=C(CC(=O)Nc1cccc(C(=O)O)c1)Nc1cccc(C(=O)O)c1 for me?
Completion: n

Prompt: In this assay, the call recorded for Cn1c(=O)c2[nH]c(SCC(=O)Nc3ccc(C(=O)/C=C/c4ccccc4Cl)cc3)nc2n(C)c1=O was what?
Completion: n

Prompt: Hey, what did the test say about CC1(C)CC[C@]23CC[C@]4(C)[C@H](CC[C@@H]5[C@@]6(C)C/C(=C/c7ccncc7)C(=O)C(C)(C)[C@@H]6CC[C@]54C)[C@H]2[C@H]1OC3 ?
Completion: n

Prompt: Record request — test call for COc1ccc(-c2n[nH]c(=O)c3nc(NC(=S)Nc4ccc(Oc5ccccc5)cc4)sc23)cc1
Completion: n

Prompt: Which outcome was entered for the compound O=C1/C(=C/c2ccc(F)cc2)CN(C(=O)C(Cl)Cl)C/C1=C\c1ccc(F)cc1 in this test?
Completion: y

Prompt: Each compound tested received a call. Report the one for CCOC(=O)c1[nH]c2c(c1C)-c1[nH]c(=O)c(S(=O)(=O)c3ccccc3)cc1SC2 .
Completion: n

Prompt: Outcome logged for CC(=O)c1sc2sc(C(C)=O)c(C)c2c1C in this assay:
Completion: n

Prompt: What did this assay record as the result for COC(=O)/C=C1/SC(=Nc2ccc([N+](=O)[O-])cc2)N(CCc2c[nH]c3ccc(O)cc23)C1=O ?
Completion: n

Prompt: Kindly provide the recorded test outcome for the following compound: CN(C)c1ccc(-c2ccc3c(c2)c(-c2ccccc2)nc(=O)n3C)cn1
Completion: n

Prompt: For C/C(=N\O)c1ccc(NC(=O)CSc2nnc(-c3cc(-c4ccc(S(N)(=O)=O)cc4)nc4ccccc34)n2-c2ccccc2)cc1 , which call appears in the assay record?
Completion: n

Prompt: Given CCN1CCN(C(=O)[C@]23CC[C@@H](C)[C@H](C)[C@@H]2C2=CC[C@@H]4[C@@]5(C)C/C(=C/c6cccnc6)C(=O)C(C)(C)[C@@H]5CC[C@@]4(C)[C@]2(C)CC3)CC1 , state the outcome it received in this test.
Completion: n

Prompt: Could you kindly confirm the outcome this assay logged for CN(C)S(=O)(=O)Oc1ccc(-c2sc3cc(OS(=O)(=O)N(C)C)ccc3c2C(=O)c2ccc(OCCN3CCCCC3)cc2)cc1 ?
Completion: n

Prompt: What did this assay record as the result for Nc1nc(N)c2c(n1)NC(c1cccc(Nc3ccnc4cc(C(F)(F)F)ccc34)c1)CC(c1ccc(Br)cc1)=N2 (stereo unspecified) ?
Completion: n
